Target: BRAF D594G (Homo sapiens, UniProt P15056, D594G)
Construct: Horizon Discovery (HCT-116 BRAF−/− cells); host or cells: HCT-116 BRAF−/− cells, clone 63, lentiviral transduction
Sequence (P15056 whole entry D594G): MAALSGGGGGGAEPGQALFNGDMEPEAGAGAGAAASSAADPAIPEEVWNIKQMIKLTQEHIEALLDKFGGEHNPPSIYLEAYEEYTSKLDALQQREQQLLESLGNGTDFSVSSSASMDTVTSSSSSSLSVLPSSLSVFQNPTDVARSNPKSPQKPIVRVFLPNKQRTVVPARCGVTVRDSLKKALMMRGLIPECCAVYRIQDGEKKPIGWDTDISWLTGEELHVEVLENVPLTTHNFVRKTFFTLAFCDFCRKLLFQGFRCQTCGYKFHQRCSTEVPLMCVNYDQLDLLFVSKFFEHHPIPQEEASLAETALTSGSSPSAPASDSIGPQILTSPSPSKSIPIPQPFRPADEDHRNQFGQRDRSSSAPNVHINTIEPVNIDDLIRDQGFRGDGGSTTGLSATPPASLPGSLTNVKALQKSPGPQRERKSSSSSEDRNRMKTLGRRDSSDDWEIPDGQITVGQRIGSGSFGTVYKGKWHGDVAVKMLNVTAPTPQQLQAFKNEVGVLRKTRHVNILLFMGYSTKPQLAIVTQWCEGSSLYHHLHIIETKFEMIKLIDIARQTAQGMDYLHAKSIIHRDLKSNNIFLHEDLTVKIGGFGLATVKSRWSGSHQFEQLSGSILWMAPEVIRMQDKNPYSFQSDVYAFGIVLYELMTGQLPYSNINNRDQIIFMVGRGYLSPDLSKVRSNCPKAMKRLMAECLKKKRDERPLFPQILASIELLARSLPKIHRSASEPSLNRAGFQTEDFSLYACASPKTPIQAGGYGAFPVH
Test: BRAF HiBiT degradation assay, C-terminal HiBiT-tagged BRAF D594G overexpressed in HCT-116 BRAF−/− cells (clone 63), Nano-Glo HiBiT Lytic assay
Format: cell-based
Conditions: BRAF D594G; DC50 at 50%: fitted conc. at Y=50
MEASURED ATTRIBUTE: DC50

>>> reported_value("CCCS(=O)(=O)Nc1cccc(-c2nc(C3CCN(C4CN(C(=O)CC5CCN(c6ccc(C7CCC(=O)NC7=O)cc6)CC5)C4)CC3)sc2-c2ccnc(N)n2)c1F (racemic) [Compound 215]")
"> 500 nM"
>>> reported_value("CCCS(=O)(=O)Nc1cccc(-c2nc(C(C)(C)C)sc2-c2ccnc(Nc3ccc(C4CCN(CC5CCN(c6cncc(C7CCC(=O)NC7=O)c6)CC5)CC4)cc3)n2)c1F (racemic) [Compound 177]")
"> 500 nM"
>>> reported_value("CCCS(=O)(=O)Nc1cccc(-c2nc(C(C)(C)C)sc2-c2ccnc(Nc3ccc(C4CCN(C(=O)C[C@H]5CCN(c6ccc(C7CCC(=O)NC7=O)cc6)C5)CC4)cc3)n2)c1F (mixture of isomers) [Compound 165]")
"> 500 nM"
